Each record here notes measured IC50.
tested on: p-IKKa levels in L363 (NIK translocated multiple myeloma) cells; experiment: Assay 2: Effect of compounds on p-IKKa levels in L363 (NIK translocated multiple myeloma) cells; assay type: cell-based; conditions: Homo sapiens, L-363, 6 h, read-out: Assay 2 IC50 (nM), p-IKKa (Ser 176/180) in BAFF stimulated L363 cells with MG132, 6 h; average if tested more than once

Field: example entries. Status: answers known.
COMPOUND | IC50
COc1nn(CCO)cc1Nc1nccc(-c2cccc(-c3cc([C@]4(O)CCN(C)C4=O)on3)n2)n1 [Example 48] | < 50 nM
CN1CC[C@@](O)(c2cc(-c3cccc(-c4ccnc(Nc5cnn(C)c5C(F)(F)F)n4)n3)no2)C1=O (single isomer, unassigned) [Example 132] | < 50 nM
Cc1nn(C(F)F)cc1Nc1nccc(-c2cccc(-c3cc([C@]4(O)CCN(C)C4=O)on3)n2)n1 [Example 211] | < 50 nM
C[C@@H](Nc1nccc(-c2cccc(-c3cc([C@]4(O)CCN(C)C4=O)on3)n2)n1)C(=O)N(C)C [Example 175] | > 500 nM
Cc1c(Nc2nccc(-c3cccc(-c4cc([C@]5(O)CCN(C)C5=O)on4)n3)n2)cnn1CC(F)F [Example 225] | < 50 nM

Assay p-IKKa levels in L363 (NIK translocated multiple myeloma) cells, sample CN1CC[C@@H](n2cc(Nc3nccc(-c4cccc(-c5cc([C@]6(O)CCN(C)C6=O)on5)n4)n3)cn2)[C@H](F)C1 (single isomer, unassigned) [Example 202] , IC50 read: < 50 nM
